Biological target: T1, recombinant hSIRPα (extracellular portion) (human, UniProt P78324 31-373, biotinylated with Sulfo-NHS-LC-LC-Biotin where immobilised on streptavidin sensors)
T1 construct: extracellular domain; The limits aa31-370 are stated for the immunogen; The BLI and HDX text says only 'recombinant hSIRPα' / 'biotinylated hSIRPα'; also called biotinylated hSIRPα
T1 sequence (P78324 31-373): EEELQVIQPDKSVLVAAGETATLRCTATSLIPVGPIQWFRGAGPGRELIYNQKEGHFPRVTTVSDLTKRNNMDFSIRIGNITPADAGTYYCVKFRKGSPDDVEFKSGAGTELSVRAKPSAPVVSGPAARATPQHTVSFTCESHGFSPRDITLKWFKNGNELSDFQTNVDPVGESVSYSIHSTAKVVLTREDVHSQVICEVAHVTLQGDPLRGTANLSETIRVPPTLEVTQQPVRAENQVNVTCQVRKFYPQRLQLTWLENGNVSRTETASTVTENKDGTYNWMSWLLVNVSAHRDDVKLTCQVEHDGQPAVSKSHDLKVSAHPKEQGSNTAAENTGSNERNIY
Assay: BLI, biotinylated hSIRPα immobilised on streptavidin biosensors, Nb in solution, global 1:1 fit
Catalogue of kon values
value kind: kon (M⁻¹ s⁻¹)

[[record]]
binder = "hSIRPα nanobody S8 (VHH, Purified by IMAC; the tag is not described; also called Nb S8) VHH: QVQLVESGGGLVQPGGSLRLSCADSEFRLDEYATGWFRQAPGKEREGVACISRSGSNTKYTDSVKGRFTISRDNAKKTVYLQMNSLKPEDTAVYYCAADLTSHYLSCSSYTDYNSWGQGTQVTVSS"
measurement = "2.04e+06"

[[record]]
binder = "hSIRPα nanobody S33 (VHH, also called Nb S33) VHH: EVQLVESGGGLVQPGGSLRLSCTTSGFTLDYYSVGWFRQAPGKEREGVSCITASGSSTNYANSVKGRFTISRDKVKNTVYLQMSSLKPEDTAVYYCAAEPCTVVAGILQAPTSDFGSWGQGTQVTVSS"
measurement = 267000

[[record]]
binder = "hSIRPα nanobody S36 (VHH, also called Nb S36; hSIRPα-S36 Nb) VHH: EVQLVESGGGLVQPGGSLRLSCAASGFTLDYYAIGWFRQVPGKEREGVSCISSDGGGNTYYADSVKGRFTISRDNAKNTVYLQMNSLKPEDSAVYSCAAGPTYYSGSYCRDPHSDYDYWGQGTQVTVSS"
measurement = "1.52e+06"

[[record]]
binder = "hSIRPα nanobody S12 (VHH, also called Nb S12) VHH: QVQLVESGGGLVQPGGSLRLSCLVSGFSSSYYAIGWFRQAPGKEREGVSCITRSGDTTNYADSVKGRFTISRDDARNTVYLQMNSLKTEDTAVYSCALWAWAGSGRLRCTASEYGHWGQGTQVTVSS"
measurement = 490000

[[record]]
binder = "hSIRPα nanobody S44 (VHH, also called Nb S44) VHH: QVQLQESGGGLVQPGGSLRLACAASGFTFSSYDMSWVRQAPGKGLEWVSDIKSGGGRTYYADSVKGRFTISRDNAKNTVYLQMNSLKPEDTAVYYCGSLDNSGAYTGGGQGSQVTVSS"
measurement = "1.99e+06"

[[record]]
binder = "hSIRPα nanobody S7 (VHH, Expressed from pHEN6 in E. coli and purified by IMAC; the tag is not described; also called Nb S7) VHH: HVQLVESGGGLVQVGDSLRLSCAPSGRTFRAYAMAWFRQAPGKEREFVAAIRWIGGTPSYKDSVKGRFTISRDNARNTFYLQMNSLEPQDTGVYYCAAEETQKGSGLGHDGRHYDYWGQGTPVTVSS"
measurement = 610000

